- PROTOCOL DETAILS: Protide stability in normal plasma, rat
- Type: in vitro ADME
- CONDITION DETAILS: 37° C., 1.5 h
Entries and their measured % Compound Remaining Compared to %100 Acetonitrile Control follow.
Reply with just the number (in %).

>  <COMPOUND>
C[C@H](NP(=O)(OC[C@H]1OC(n2cnc3c(=O)[nH]c(N)nc32)[C@](C)(O)[C@@H]1O)Oc1cccc2ccccc12)C(=O)OCC(C)(C)C (stereo partly shown) [A, reference compound]

>  <READING>
0

$$$$
>  <COMPOUND>
CC(C)[C@H](NP(=O)(OC[C@H]1OC(n2cnc3c(=O)[nH]c(N)nc32)[C@](C)(O)[C@@H]1O)Oc1cccc2ccccc12)C(=O)OCC(C)(C)C (stereo partly shown) [B, reference compound]

>  <READING>
42.0

$$$$
>  <COMPOUND>
COc1nc(N)nc2c1ncn2C1O[C@H](COP(=O)(N[C@H](C(=O)OCC(C)(C)C)C(C)C)Oc2cccc3ccccc23)[C@@H](O)[C@@]1(C)O (stereo partly shown)

>  <READING>
37.0

$$$$
>  <COMPOUND>
COc1nc(N)nc2c1ncn2C1O[C@H](COP(=O)(N[C@H](C(=O)OC2CCOCC2)C(C)C)Oc2cccc3ccccc23)[C@@H](O)[C@@]1(C)O (stereo partly shown)

>  <READING>
57.3

$$$$
>  <COMPOUND>
COc1nc(N)nc2c1ncn2C1O[C@H](COP(=O)(N[C@@H](C)C(=O)OCC(C)(C)C)Oc2cccc3ccccc23)[C@@H](O)[C@@]1(C)O (stereo partly shown)

>  <READING>
0

$$$$

# % Compound Remaining Compared to %100 Acetonitrile Control (compound: COc1nc(N)nc2c1ncn2C1O[C@H](COP(=O)(N[C@H](C(=O)OCc2ccccc2)C(C)C)Oc2cccc3ccccc23)[C@@H](O)[C@@]1(C)O (stereo partly shown) ) is 1.4

# % Compound Remaining Compared to %100 Acetonitrile Control (compound: COc1nc(N)nc2c1ncn2C1O[C@H](COP(=O)(N[C@H](C(=O)OCC(C)(C)C)C(C)C)Oc2c(C)ccc3ccccc23)[C@@H](O)[C@@]1(C)O (stereo partly shown) ) is 58.4

* * *

- PROTOCOL DETAILS: in vitro
- CONDITION DETAILS: dog
MEASURED QUANTITY: CC50

# CC50 (compound: COc1nc(N)nc2c1ncn2C1O[C@H](COP(=O)(N[C@@H](C)C(=O)OCC(C)(C)C)Oc2cccc3ccccc23)[C@@H](O)[C@@]1(C)O (stereo partly shown) [Example 20] ) is > 10 µM

* * *

Entries and their measured IC50 follow.
- System: HCV replicon (Genotype 1b)
- PROTOCOL DETAILS: Luciferase genotype 1b replicon potency assay
- CONDITION DETAILS: Hepatitis C virus, GETYPE1B, read-out: IC50 μM, HCV genotype 1b luciferase replicon, Renilla luciferase reporter
Reply with just the number (in µM).

>  <MOLECULE>
COc1nc(N)nc2c1ncn2C1O[C@H](COP(=O)(N[C@H](C(=O)OCC(C)(C)C)c2ccccc2)Oc2cccc3ccccc23)[C@@H](O)[C@@]1(C)O (stereo partly drawn)

>  <UNITS SYMBOL>
µM

>  <IC50>
0.032

$$$$
>  <MOLECULE>
COc1nc(N)nc2c1ncn2C1O[C@H](COP(=O)(N[C@H](C(=O)OCC(C)(C)C)C(C)C)Oc2cccc3ncccc23)[C@@H](O)[C@@]1(C)O (stereo partly drawn)

>  <UNITS SYMBOL>
µM

>  <IC50>
0.55

$$$$
>  <MOLECULE>
COc1nc(N)nc2c1ncn2C1O[C@H](COP(=O)(N[C@@H](CCSC)C(=O)OCc2ccccc2)Oc2cccc3ccccc23)[C@@H](O)[C@@]1(C)O (stereo partly drawn)

>  <UNITS SYMBOL>
µM

>  <IC50>
0.22

$$$$
>  <MOLECULE>
CSc1nc(N)nc2c1ncn2[C@@H]1O[C@H](COP(=O)(N[C@@H](C)C(=O)OCC(C)(C)C)Oc2ccc3ncccc3c2)[C@@H](O)[C@@]1(C)O (stereo partly drawn)

>  <UNITS SYMBOL>
µM

>  <IC50>
0.26

$$$$

# IC50 (molecule: COC(=O)[C@@H](NP(=O)(OC[C@H]1OC(n2cnc3c(OC)nc(N)nc32)[C@](C)(O)[C@@H]1O)Oc1cccc2ccccc12)c1ccccc1 (stereo partly drawn) ) is 0.49

The reported numbers originate from patent US8759318B2.
